# System: H929 cells
# test_name: Cell viability assay (Cell TiterGlo), H929 cells
# Format: cell-based, human
# run_parameters: Homo sapiens, NCI-H929, 24 hours
parameter_measured: pEC50
// pEC50 is dimensionless: -log10 of concentration (M)

Name the recorded pEC50 for CS(=O)(=O)N1CC=C(c2cc3c(-c4ccc5ncn(Cc6cccc(F)c6)c5c4)ccnc3[nH]2)CC1 [Example 15] . 8.15

Lookup Clc1cc2ncn(CC3CCOCC3)c2cc1-c1ccnc2[nH]c(C3CCNCC3)cc12 [Example 27] 5.15

Lookup OCC(O)CN1CC=C(c2cc3c(-c4ccc5ncn(Cc6cccc(F)c6)c5c4)ccnc3[nH]2)CC1 (centres unmarked) [Example 25] 7.31

Lookup N#Cc1cn(Cc2cccc(F)c2)c2nc(-c3ccnc4[nH]c(C5CCNCC5)cc34)ccc12 [Example 35] 6.70

Lookup c1cc(-c2ccc3ncn(CC4CCOCC4)c3n2)c2cc(C3CCNCC3)[nH]c2n1 [Example 7] 6.30

Lookup N#Cc1cn(Cc2cccc(F)c2)c2cc(-c3ccnc4[nH]c(C5CCNCC5)cc34)ccc12 [Example 8] 7.14

Lookup Fc1cncc(Cn2ccc3ccc(-c4ccnc5[nH]c(C6=CCNCC6)cc45)nc32)c1 [Example 51] 7.05

Lookup CS(=O)(=O)N1CCC(c2cc3c(-c4cnc5ccn(CC6CCOCC6)c5c4)ccnc3[nH]2)CC1 [Example 46] 5.74
